tested on: Vero E6; experiment: drug sensitivity score (DSS) for viability; higher = more toxic; extreme values may be limits of the assay; details: 72 h
Entries and their measured drug sensitivity score follow.
Give the figure only, with no unit attached.

Cc1sc(C)c(C(=O)NC2(c3ccc(C(=O)O)cc3)CC2)c1Cc1ccc(C(F)(F)F)cc1 = 0
NCCC(Oc1ccc(C(F)(F)F)cc1)c1ccccc1 (centres undefined) = 0.7
N=C(Nc1ccc(I)cc1)NC1C2CC3CC(C2)CC1C3 (centres undefined) = 2.7

// next entry
# drug sensitivity score lookup, item CC(=O)Oc1cc(C(F)(F)F)ccc1C(=O)O
0

###

Reported cell viability by item:
system: Caco-2; test: cell viability relative to DMSO; higher = less toxic; details: 72 h; 1000 nM
Answer format: numeric, % implied, no suffix.

CNCC(O)c1ccc(O)c(O)c1 (racemic) [DL-Adrenaline] = 93.7
O=C(CCBr)N1CC[N+]2(CC1)CC[N+]1(CCN(C(=O)CCBr)CC1)CC2 [spirobromin] = 109

// lookup cell viability | system=Caco-2 | key= Cn1cc(C(F)(F)F)nc1-c1ccc(OCC(O)CNCCOc2ccc(O)c(C(N)=O)c2)cc1 (centres undefined)
98.7

Param item: CCC(=O)N[C@@H]1Cc2ccccc2[C@H](c2ccccc2)C1 [4-P-PDOT]
95.1

What do we get for C[C@@H]1CN(Cc2ccc(F)cc2)CCN1C(=O)COc1ccc(Cl)cc1NC(N)=O ?
81.3

Lookup COc1ccc(Cl)c(Nc2ncnc3cc(OCC4CCN(C)CC4)c(OC)cc23)c1
89.9

Cool, now Cc1cc(C(C)(C)C)c(O)c(C)c1CC1=NCCN1 [oxymetazoline]
96.6

What do we get for CC1(COc2ccc3c(c2)ncn3-c2ccc3cccc(N4CCC(N)CC4)c3n2)COC1 [crenolanib] ?
112

# repeat for CN1CCN(c2ccc(OC(F)(F)F)c(Nc3ncc4c(n3)-c3c(c(C(N)=O)nn3CCO)CC4)c2)CC1
52

###

test system: Calu-3; assay: cell viability relative to DMSO; higher = less toxic; conditions: 72 h; 10 nM
ENDPOINT: cell viability

Cc1cc(C)c(S(=O)(=O)Nc2ccccc2C(F)(F)F)c(C)c1 [o-3M3FBS] = 99.5%
O=C(O)c1ccc2c(c1)C(=O)N(c1cccc(Oc3ccc([N+](=O)[O-])cc3)c1)C2=O = 96.5%
c1cc2c(cc1C1CCCCC1)c1c3n2CCNC3CCC1 (stereo not given) [tetrindole] = 94.9%
O=C(O)c1cc(O)c(O)c(O)c1 [gallic-acid] = 93%

Next molecule, cell viability to be filled in.
What value of cell viability has been recorded for this entry: COc1cc(C(=O)OCCCN2CCCN(CCCOC(=O)c3cc(OC)c(OC)c(OC)c3)CC2)cc(OC)c1OC [dilazep]
102%

###

system: HepG2; assay: cell viability relative to DMSO; higher = less toxic; settings: 72 h; 1000 nM
Below, each entry is listed with its recorded cell viability.
Please don't drop the unit; write it after the number.

Observe how each entry below is paired with its result.
Cc1cc(C)c(S(=O)(=O)Nc2ccccc2C(F)(F)F)c(C)c1 = 94.9%
S=C=Nc1ccc(N=C=S)cc1 [bitoscanate] = 91%
O=C1NC(=O)c2c1c1c3ccccc3[nH]c1c1[nH]c3ccccc3c21 = 43.3%
CN[C@@H](C)C(=O)N[C@H](C(=O)N1CCC[C@H]1C(=O)N[C@H]1c2ccccc2C[C@H]1OCC#CC#CCO[C@@H]1Cc2ccccc2[C@@H]1NC(=O)[C@@H]1CCCN1C(=O)[C@@H](NC(=O)[C@H](C)NC)C1CCCCC1)C1CCCCC1 = 106%
CO[C@H]1CC[C@@H](C(=O)c2ccc3nc4c(cc3c2)CCCO4)CC1 = 102%

What measured cell viability goes with COc1ccc2c(c1OC)C(=O)O[C@@H]2[C@H]1c2c(cc3c(c2OC)OCO3)CCN1C ?
100%

Please give the result for Cc1noc2c1-c1ccccc1C(c1ccc(Cl)cc1)=N[C@H]2CC(N)=O too.
75.2%

What about this compound? N#C/C(=C\c1cn(-c2ccccc2)c2ccccc12)C(=O)O
97%

###

test system: Caco-2; experiment: cell viability relative to DMSO; higher = less toxic; conditions: 72 h; 1 nM
Reported cell viability by item:
The response must be a number in % with no trailing unit.

# example entries with known answers
CC1(C)S[C@@H]2[C@H](NC(=O)[C@H](C(=O)O)c3ccsc3)C(=O)N2[C@H]1C(=O)O = 103
CS(=O)(=O)Nc1c(O)ccc2c1CCC[C@H]2C1=NCCN1 = 109

Please tell me: cell viability of Nc1nc2c(ccc3ccccc32)s1 , system Caco-2?
99.6

Here is the next molecule: CC(C)CNc1nc(-c2cccc3ncccc23)cn2c(-c3ccc(C(=O)NC4CC4)cc3)cnc12
93.1

// query: COC(=O)N1CC[C@@H]2[C@H]1CCC[C@@]2(O)C#Cc1cccc(C)c1
110

Check CN(C(=O)CN(CCO)CC(=O)N(C)C(C)(C)Cc1ccccc1)C(C)(C)Cc1ccccc1 too.
90.7

Next molecule: CCCCCCCCCCCCCCOc1ccc(C(=O)O)o1
95

Now the molecule Nc1cccc(-c2cc3c(Oc4cccc(O)c4)ncnc3[nH]2)c1
99.3

Check CCOC(=O)N[C@@H]1CC[C@@H]2[C@@H](C1)C[C@H]1C(=O)O[C@H](C)[C@H]1[C@H]2/C=C/c1ccc(-c2cccc(F)c2)cn1 too.
90

###

system: U2OS; test: cell viability relative to DMSO; higher = less toxic; details: 72 h; 10 nM
ENDPOINT: cell viability
Respond with the figure and its unit, in that order.

Below, 2 molecules whose answers are already recorded.
Cc1cc(C)c(S(=O)(=O)Nc2ccccc2C(F)(F)F)c(C)c1 = 99.8%
S=C=Nc1ccc(N=C=S)cc1 [bitoscanate] = 101%

We now examine a further molecule.
Look at this molecule and give its reported cell viability. CCC(C)(C)C(=O)C(=O)N1CCC[C@H]1C(=O)OCCCc1cccnc1
95.3%

###

test system: HepG2; assay: drug sensitivity score (DSS) for viability; higher = more toxic; extreme values may be limits of the assay; conditions: 72 h
Quick reference for drug sensitivity score among some compounds
Lab note: jot down the number only; don't add units.

Reference set (3 entries):
CCOc1ccc2nc3cc(N)ccc3c(N)c2c1 [ethacridine-lactate-monohydrate] = 4.6
c1ccc2nc(C3=NCCN3)ccc2c1 = 0.1
COc1ccc(Cl)c(Nc2ncnc3cc(OCC4CCN(C)CC4)c(OC)cc23)c1 = 0

Name the reported drug sensitivity score value associated with the compound O=c1cc(-c2ccccc2)oc2cc(O)cc(O)c12
0

Request: CO[C@@]1(NC(=O)CSCC#N)C(=O)N2C(C(=O)O)=C(CSc3nnnn3C)CS[C@@H]21
0

###

system: HepG2; experiment: cell viability relative to DMSO; higher = less toxic; conditions: 72 h; 100 nM
In this section we review reported cell viability values for a set of compounds.
Report only the number, with the unit % understood.

Known cell viability results, listed for orientation:
CC(=O)O[C@]1(C(C)=O)CC[C@H]2[C@@H]3CCC4=CC(=O)CC[C@]4(C)[C@H]3CC[C@@]21C [hydroxyprogesterone-acetate] = 110
C/C(=C(\CCOP(=O)(O)O)SC(=O)c1ccccc1)N(C=O)Cc1cnc(C)nc1N = 88.4
Oc1ccc(-c2nc3cc(O)cc(Br)c3o2)cc1 = 104
COC1=CC(=O)C[C@@H](C)[C@]12Oc1c(Cl)c(OC)cc(OC)c1C2=O = 95.6
O=C(c1ccc(Nc2nccc(-c3cc4ccccc4s3)n2)cc1)N1CCC(N2CCCC2)CC1 = 91.6

Could you tell me which cell viability is on file for O=C(c1c2ccccc2cc2ccccc12)N1CCC(N2CCC[C@@H](C(=O)N3CCOCC3)C2)CC1 ?
96.9

Note, next up: CN(C(=O)CN(CCO)CC(=O)N(C)C(C)(C)Cc1ccccc1)C(C)(C)Cc1ccccc1
98.9

What do we get for Cc1cn([C@H]2C=C[C@@H](CO)O2)c(=O)[nH]c1=O ?
93.8

###

Measured cell viability accompanies every entry in the list below.
tested on: Caco-2; experiment: cell viability relative to DMSO; higher = less toxic; settings: 72 h; 100 nM
Please respond with the number in % and leave the unit unwritten.

See these solved cases before continuing.
NC(=O)C1=CN([C@@H]2O[C@H](COP(=O)(O)OP(=O)(O)OC[C@H]3O[C@@H](n4cnc5c(N)ncnc54)[C@H](O)[C@@H]3O)[C@@H](O)[C@H]2O)C=CC1 [coenzyme-I] = 88.7
O=C(Nc1cccc2cccnc12)c1ccc(N2C(=O)[C@@H]3[C@H](C2=O)[C@H]2C=C[C@@H]3C2)cc1 [exo-IWR-1] = 103
NC1(C(=O)O)CC1 [ACPC] = 104
Cc1ccc(C(=O)Nc2ccc(S(=O)(=O)O)c3cc(S(=O)(=O)O)cc(S(=O)(=O)O)c23)cc1NC(=O)c1cccc(NC(=O)Nc2cccc(C(=O)Nc3cc(C(=O)Nc4ccc(S(=O)(=O)O)c5cc(S(=O)(=O)O)cc(S(=O)(=O)O)c45)ccc3C)c2)c1 [suramin] = 99
CS(=O)(=O)CCNCc1ccc(-c2ccc3ncnc(Nc4ccc(OCc5cccc(F)c5)c(Cl)c4)c3c2)o1 [lapatinib] = 90.1
NS(=O)(=O)c1nn2cc(-c3ccccc3)nc2s1 [AEG3482] = 102

Find cell viability (Caco-2) for the entry CCN(CC)Cc1ccc2cc(COC(=O)Nc3ccc(C(=O)NO)cc3)ccc2c1 [givinostat]
93.2

Here is the next compound: CC1(C)S[C@@H]2[C@H](NC(=O)[C@H](C(=O)O)c3ccsc3)C(=O)N2[C@H]1C(=O)O [ticarcillin]
91.1

Please do the same for C[C@@H](N)Cc1c[nH]c2ccc(O)cc12 [alpha-methylserotonin] as well.
88

Try O=C(NO)c1cnc(N2CCN(S(=O)(=O)c3ccc4ccccc4c3)CC2)nc1 next.
84.7

Lookup CC(=O)[C@]1(N)Cc2c(O)c3c(c(O)c2[C@@H](O[C@H]2C[C@H](O)[C@H](O)CO2)C1)C(=O)c1ccccc1C3=O [amrubicin]
99.6
